Hey, just so you know, these numbers are from patent US8969362B2.

Could you please report measured melting point for the items listed next?

// field: melting point; key: CCCCOc1nc(N)c2[nH]c(=O)n(CCSc3cccc(CC(=O)O)c3)c2n1 [Example 2-40] ; value = 205 to 207 °C

// field: melting point; key: CCCCOc1nc(N)c2[nH]c(=O)n(CCCCN(C)S(=O)(=O)c3cccc(CC(=O)O)c3)c2n1 [Example 2-18] ; value = 171 to 172 °C

// field: melting point; key: CCCCOc1nc(N)c2[nH]c(=O)n(CCSc3cccc(CC(=O)OC)c3)c2n1 [Example 2-39] ; value = 232 to 233 °C

// field: melting point; key: CCCCOc1nc(N)c2[nH]c(=O)n(CCCNS(=O)(=O)c3cccc(CC(=O)OC)c3)c2n1 [Example 2-21] ; value = 218 to 219 °C

// field: melting point; key: CCCCOc1nc(N)c2[nH]c(=O)n(CCS(=O)(=O)c3cccc(CC(=O)OC)c3)c2n1 [Example 2-48] ; value = 246 to 247 °C

// field: melting point; key: CCCCOc1nc(N)c2[nH]c(=O)n(CCNc3cccc(CC(=O)OC)c3)c2n1 [Example 2-41] ; value = 222 to 223 °C

// field: melting point; key: CCCCOc1nc(N)c2[nH]c(=O)n(CCN(C)Cc3cccc(CC(=O)O)c3)c2n1 [Example 2-50] ; value = 164 to 166 °C

// field: melting point; key: CCCCOc1nc(N)c2[nH]c(=O)n(CCCCNS(=O)(=O)c3ccc(CCC(=O)O)cc3)c2n1 [Example 2-12] ; value = 210 to 211 °C

* * *

Could you please report measured Residual rate for the items listed next?
experiment: Metabolic stability test on rat liver S9; format: in vitro ADME; conditions: rat liver S9 with NADPH, 1 μM test compound, 37° C.; residual rate after reaction
Express the result in % but write the number alone.

// field: Residual rate; key: CCCCOc1nc(N)c2[nH]c(=O)n(CCOc3ccc(CCC(=O)OC)cc3)c2n1 [Example 7] ; value = 0

// field: Residual rate; key: CCCCOc1nc(N)c2[nH]c(=O)n(CCOc3cccc(C(=O)OC)c3)c2n1 [Example 1] ; value = 0

// field: Residual rate; key: CCCCOc1nc(N)c2[nH]c(=O)n(CCCCNS(=O)(=O)c3cccc(C(=O)OC)c3)c2n1 [Example 8] ; value = 0

// field: Residual rate; key: CCCCOc1nc(N)c2[nH]c(=O)n(CCOc3ccc(C(=O)OC)cc3)c2n1 [Example 5] ; value = 0

// field: Residual rate; key: CCCCOc1nc(N)c2[nH]c(=O)n(CCCCNS(=O)(=O)c3cccc(CC(=O)OC)c3)c2n1 [Example 9] ; value = 0

// field: Residual rate; key: CCCCOc1nc(N)c2[nH]c(=O)n(CCOc3ccc(CC(=O)OC)cc3)c2n1 [Example 6] ; value = 0

// field: Residual rate; key: CCCCOc1nc(N)c2[nH]c(=O)n(CCOc3ccccc3C(=O)OC)c2n1 [Example 3] ; value = 0

// field: Residual rate; key: CCCCOc1nc(N)c2[nH]c(=O)n(CCOc3ccccc3CC(=O)OC)c2n1 [Example 4] ; value = 0

// field: Residual rate; key: CCCCOc1nc(N)c2[nH]c(=O)n(CCOc3cccc(CC(=O)OC)c3)c2n1 [Example 2] ; value = 1

// field: Residual rate; key: CCCCOc1nc(N)c2[nH]c(=O)n(CCCCNC(=O)Nc3cccc(C(=O)OC)c3)c2n1 [Example 10] ; value = 1
